Sourced from ChEMBL document CHEMBL1140899

This section lists IC50 readings for Epidermal growth factor receptor (Homo sapiens, UniProt P00533).
Mention the unit after the number when you answer.

Example compounds with recorded IC50:
{"compound": "C=CC(=O)NC1=CC=C2N=CN=C(Nc3cccc(C)c3)C21 (stereo unspecified)", "tgt": "Epidermal growth factor receptor (Homo sapiens, UniProt P00533)", "IC50": "0.417 nM"}
{"compound": "O=C(CCn1ncc2cc3c(Nc4cccc(Br)c4)ncnc3cc21)N1CCOCC1", "tgt": "Epidermal growth factor receptor (Homo sapiens, UniProt P00533)", "IC50": "3.72 nM"}
{"compound": "C=CC(=O)N(C)c1nc2c(Cc3ccc(F)c(Cl)c3)ncnc2cc1OCCCN1CCOCC1", "tgt": "Epidermal growth factor receptor (Homo sapiens, UniProt P00533)", "IC50": "20 nM"}
{"compound": "Brc1cccc(Nc2ncnc3cc4c(cc23)CN4)c1", "tgt": "Epidermal growth factor receptor (Homo sapiens, UniProt P00533)", "IC50": "0.437 nM"}
{"compound": "C=CC(=O)NC1=CC=C2N=CN=C(Nc3cccc(Cl)c3)C21 (stereo unspecified)", "tgt": "Epidermal growth factor receptor (Homo sapiens, UniProt P00533)", "IC50": "1.58 nM"}

Attention now turns to another entry.
Query: Need IC50, item CN1Cc2cc3c(Nc4cccc(Br)c4)ncnc3cc21
Response: 0.794 nM

* * *

This section lists IC50 readings for UniProt:P00533.
One number for each entry, in nM.

Please look at the items below and tell me IC50 for each one, in order.
1. C/C=C/C(=O)Cc1cc2c(Nc3cccc(Br)c3)ncnc2cn1
2. C=CC(=O)Nc1cc2ncnc(Nc3cccc(Br)c3)c2[nH]1
3. C=CC(=O)Nc1nc2c(Cc3ccc(F)c(Cl)c3)ncnc2cc1CCCCN1CCOCC1
4. O=C(Cc1c[nH]c2cc3ncnc(Nc4cccc(Br)c4)c3cc12)N1CCOCC1
5. C=C=CC(=O)Cc1ccc2ncnc(Nc3cccc(Br)c3)c2c1
6. C=CC(=O)Nc1cc2c(Cc3cccc(Br)c3)ncnc2cc1OCCCN1CCC(C)CC1
7. C=CC(=O)Nc1cc2c(Cc3cccc(C)c3)ncnc2cc1OCCCN1CCOCC1

Response:
0.501
1.1
2.69
4.79
1.58
1.7
1.51

Please look at the items below and tell me IC50 for each one, in order.
1. COC[C@H]1Oc2cc3ncnc(Nc4cccc(Cl)c4)c3cc2O[C@@H]1COC
2. C=CC(=O)Nc1nc2c(Cc3ccc(F)c(Cl)c3)ncnc2cc1OCCCN1CCC(C)CC1
3. CCOC(=O)c1ccc(N2CCOCC2)c(NS(=O)(=O)c2cc(Br)c(Cl)s2)c1

Response:
1: 10.1; 2: 6.61; 3: 11100

* * *

# tgt: Epidermal growth factor receptor (Homo sapiens, UniProt P00533)
# Sequence (P00533 whole entry): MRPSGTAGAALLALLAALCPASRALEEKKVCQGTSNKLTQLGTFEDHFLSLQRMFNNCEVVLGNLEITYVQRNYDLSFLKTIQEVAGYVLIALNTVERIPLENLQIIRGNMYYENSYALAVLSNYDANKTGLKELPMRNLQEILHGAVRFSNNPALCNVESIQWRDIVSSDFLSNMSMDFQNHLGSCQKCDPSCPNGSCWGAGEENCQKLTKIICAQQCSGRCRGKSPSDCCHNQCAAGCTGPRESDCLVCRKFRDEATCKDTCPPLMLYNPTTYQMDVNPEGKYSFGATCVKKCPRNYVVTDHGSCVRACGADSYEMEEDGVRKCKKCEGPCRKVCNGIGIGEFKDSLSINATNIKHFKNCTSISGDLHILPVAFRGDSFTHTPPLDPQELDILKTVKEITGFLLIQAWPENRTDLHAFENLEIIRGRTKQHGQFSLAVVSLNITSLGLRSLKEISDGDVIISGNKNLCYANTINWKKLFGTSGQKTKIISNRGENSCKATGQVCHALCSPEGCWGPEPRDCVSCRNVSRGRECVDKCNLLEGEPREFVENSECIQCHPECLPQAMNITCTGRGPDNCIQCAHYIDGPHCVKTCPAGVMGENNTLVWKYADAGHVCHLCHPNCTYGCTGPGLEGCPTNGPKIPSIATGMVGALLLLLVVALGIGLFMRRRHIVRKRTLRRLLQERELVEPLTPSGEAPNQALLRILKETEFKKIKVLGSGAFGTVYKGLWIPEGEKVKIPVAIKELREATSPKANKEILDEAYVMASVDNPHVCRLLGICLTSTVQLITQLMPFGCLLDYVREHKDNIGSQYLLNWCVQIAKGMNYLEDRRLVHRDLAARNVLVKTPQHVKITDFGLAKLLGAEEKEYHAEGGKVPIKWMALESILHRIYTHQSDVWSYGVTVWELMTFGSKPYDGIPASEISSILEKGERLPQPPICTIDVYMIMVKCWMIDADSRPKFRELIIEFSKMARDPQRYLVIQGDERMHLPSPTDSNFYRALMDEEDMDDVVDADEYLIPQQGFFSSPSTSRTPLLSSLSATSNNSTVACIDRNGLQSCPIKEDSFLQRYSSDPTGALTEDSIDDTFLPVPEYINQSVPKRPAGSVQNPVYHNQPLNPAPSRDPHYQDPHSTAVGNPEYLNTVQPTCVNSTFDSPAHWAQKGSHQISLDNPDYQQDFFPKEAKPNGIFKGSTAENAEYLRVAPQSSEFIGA
# conditions: at 100 µM
# Description: Inhibition of human recombinant EGFR at 100 uM
Use 80% as the dividing line for inhibition, with the line itself on the criterion met side and lower values as criterion not met.

Examples with answers:
{"compound": "O=c1[nH]nc(SCCS(=O)(=O)c2cccc(C(F)(F)F)c2)n1-c1ccc(OCc2ccccc2)cc1", "tgt": "Epidermal growth factor receptor (Homo sapiens, UniProt P00533)", "qualitative_label": "criterion not met"}
{"compound": "CN1CCN(c2ccccc2/C=C2/C(=O)Nc3ccccc32)CC1", "tgt": "Epidermal growth factor receptor (Homo sapiens, UniProt P00533)", "qualitative_label": "criterion not met"}
{"compound": "COc1cc2ncnc(Nc3cccc(C)c3)c2cc1OC", "tgt": "Epidermal growth factor receptor (Homo sapiens, UniProt P00533)", "qualitative_label": "criterion met"}

Query: Does the reported inhibition for O=c1[nH]nc2n1-c1ccccc1SC2 fall at or above the 80% mark?
Response: criterion not met

Query: Does the reported inhibition for FC(F)(F)c1ccc(-n2cnnc2SCc2nc(COc3c(Cl)cccc3Cl)no2)cc1 fall at or above the 80% mark?
Response: criterion not met

Query: Does the reported inhibition for CC1=NNC2OC(N)=C(C#N)C(c3ccc4c(c3)OCO4)C12 (configuration not stated) fall at or above the 80% mark?
Response: criterion not met

* * *

# tgt: Epidermal growth factor receptor (Homo sapiens)
IC50 vs 3 nM: less than gives 1.0; not less than gives 0.0.

Examples with answers:
{"compound": "C=CC(=O)Nc1cc2ncnc(Nc3ccc(F)c(Br)c3)c2[nH]1", "qualitative_label": 1.0}
{"compound": "C=CC(=O)Nc1cc2ncnc(Nc3cccc(Cl)c3)c2cn1", "qualitative_label": 1.0}

Query: A record lists COc1cc2nccc(Nc3ccc(F)c(Cl)c3)c2cc1NC(=O)/C=C/C(C)N1CCOCC1 (stereo not given) . Is its IC50 below 3 nM?
Response: 0.0

* * *

This section lists pIC50 readings for Epidermal growth factor receptor (Homo sapiens).
Answers are plain numbers, as −log10 of the molar value.

{"compound": "C=CC(=O)Nc1cc2c(Cc3cccc(Br)c3)ncnc2cc1OCCCCN(C)C", "pIC50": 8.41}
{"compound": "C=CC(=O)Nc1cc2c(Cc3ccc(F)c(Cl)c3)ncnc2cc1OCCCN1CCOCC1", "pIC50": 8.82}
{"compound": "COc1cc2ncnc(Nc3ccc(F)c(Cl)c3)c2cc1CNC(=O)[C@H]1CCCCN1C", "pIC50": 8.10}
{"compound": "COc1cc(NC(=O)/C=C/CN2CCOCC2)cc2c(Nc3cccc(Br)c3)ccnc12", "pIC50": 5.27}
{"compound": "CCOC(=O)/C=C/C(=O)Cc1cc2c(Nc3cccc(Br)c3)ncnc2cn1", "pIC50": 8.82}
{"compound": "COc1cc2ncnc(Nc3ccc(F)c(Cl)c3)c2cc1CN(C)[C@@H](C)C(N)=O", "pIC50": 8.10}
{"compound": "C=CC(=O)C(CCCN1CCOCC1)c1cc2c(Nc3cccc(Br)c3)ncnc2cn1 (stereo not given)", "pIC50": 8.57}
{"compound": "C=CC(=O)NC1=CC=C2N=CN=C(Nc3ccc(Oc4ccccc4)cc3)C21 (stereo not given)", "pIC50": 8.24}

Please look at the items below and tell me pIC50 for each one, in order.
1. C=CC(=O)C(C)c1cc2c(Nc3cccc(Br)c3)ncnc2cn1 (stereo not given)
2. C/C=C/C(=O)Cc1ccc2ncnc(Nc3cccc(Br)c3)c2c1

Response:
9.77
9.26

* * *

This section lists IC50 readings for Epidermal growth factor receptor (Homo sapiens, UniProt P00533).
Mention the unit after the number when you answer.

{"compound": "O=C(/C=C/C(=O)NCCCn1ccnc1)Cc1cc2c(Nc3cccc(Br)c3)ncnc2cn1", "result": "0.562 nM"}

Please look at the items below and tell me IC50 for each one, in order.
1. C=CC(=O)Nc1ccc2ncnc(Cc3cccc(C)c3)c2c1
2. C=CC(=O)Nc1nc2c(Cc3ccc(F)c(Cl)c3)ncnc2cc1/C=C/CCN1CCOCC1
3. C=CC(=O)Nc1ccc2ncnc(Cc3ccc(F)c(Cl)c3)c2n1
4. O=C(/C=C/CC(=O)Nc1ccc2ncnc(Nc3cccc(Br)c3)c2c1)Nc1ccc2c(Nc3cccc(Br)c3)ncnc2c1
5. N#Cc1cccc(NC(=O)Nc2ncnc3nn4ccccc4c23)c1
6. C=CC(=O)C(CCCN1CCOCC1)c1ccc2ncnc(Nc3cccc(Br)c3)c2c1 (configuration not stated)
7. C=CC(=O)Nc1nc2c(Cc3ccc(F)c(Cl)c3)ncnc2cc1OCCOC

Response:
["0.417 nM", "0.158 nM", "0.759 nM", "0.447 nM", "10000 nM", "3.31 nM", "0.977 nM"]

Please look at the items below and tell me IC50 for each one, in order.
1. C=CC(=O)Nc1cc2c(Cc3cccc(Br)c3)ncnc2cc1OCCCn1ccnc1
2. C=C(C)C(=O)Cc1ccc2ncnc(Nc3cccc(Br)c3)c2c1
3. O=C(CCCN1Cc2cc3c(Nc4cccc(Br)c4)ncnc3cc21)N1CCOCC1
4. COc1cc2nccc(Nc3ccc(F)c(Cl)c3)c2cc1NC(=O)/C=C/CN1CCOCC1
5. COc1cc2ncnc(Nc3ccc(F)c(Cl)c3)c2cc1CN1CC[C@@H](C(N)=O)C1
6. O=C(O)CCNc1cc2ncnc(Nc3cccc(Br)c3)c2cn1
7. C=CC(=O)NC1=NC=C2N=CN=C(Nc3cccc(C)c3)C21 (configuration not stated)
8. C=CC(=O)NC1=CC=C2N=CN=C(Nc3ccc(OCc4ccccc4)cc3)C21 (configuration not stated)

Response:
1. 3.02 nM
2. 1.2 nM
3. 8.71 nM
4. 13600 nM
5. 6 nM
6. 0.603 nM
7. 0.479 nM
8. 3.63 nM

Query: Need IC50, item CN(C)c1cc2ncnc(Nc3cccc(Br)c3)c2cn1
Response: 0.0891 nM
